Cited source: ChEMBL document CHEMBL4411283

subject.of.test: Tyrosine-protein kinase BTK (Homo sapiens, UniProt Q06187)
Sequence (Q06187 whole entry): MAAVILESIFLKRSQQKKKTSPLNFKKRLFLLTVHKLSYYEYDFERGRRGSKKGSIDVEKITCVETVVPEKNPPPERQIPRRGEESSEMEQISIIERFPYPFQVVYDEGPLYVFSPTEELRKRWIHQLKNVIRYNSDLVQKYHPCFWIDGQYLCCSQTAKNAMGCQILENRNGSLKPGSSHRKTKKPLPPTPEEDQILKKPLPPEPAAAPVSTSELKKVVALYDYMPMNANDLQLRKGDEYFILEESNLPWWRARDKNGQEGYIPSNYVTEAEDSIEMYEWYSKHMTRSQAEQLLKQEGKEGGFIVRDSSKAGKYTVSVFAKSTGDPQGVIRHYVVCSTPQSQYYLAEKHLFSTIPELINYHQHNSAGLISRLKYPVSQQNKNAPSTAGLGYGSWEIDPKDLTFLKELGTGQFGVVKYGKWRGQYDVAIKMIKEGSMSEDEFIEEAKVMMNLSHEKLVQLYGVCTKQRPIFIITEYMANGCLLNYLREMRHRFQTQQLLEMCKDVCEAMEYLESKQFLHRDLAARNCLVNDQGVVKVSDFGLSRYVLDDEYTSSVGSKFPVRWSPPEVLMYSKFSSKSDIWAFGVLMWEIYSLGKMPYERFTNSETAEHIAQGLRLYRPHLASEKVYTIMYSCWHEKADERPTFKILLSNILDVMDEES
protocol.notes: Inhibition of BTK (unknown origin) preincubated for 10 mins followed by substrate addition and measured after 1 hr by ADP-Glo luminescence assay
measured.endpoint: IC50 (µM)

[[record]]
smiles_data = "COc1ccccc1/C=C/c1nc(Nc2ccc3c(c2)OCO3)c2ccccc2n1"
unit_label = "µM"
obs_value = 0.237

[[record]]
smiles_data = "COc1ccccc1/C=C/c1nc2ccccc2c(=O)[nH]1"
unit_label = "µM"
obs_value = 0.456

[[record]]
smiles_data = "O=[N+]([O-])c1cccc(/C=C/c2nc(Nc3cccc(O)c3)c3ccccc3n2)c1"
unit_label = "µM"
obs_value = 0.88

[[record]]
smiles_data = "Oc1cccc(Nc2nc(/C=C/c3cc4c(cc3Br)OCO4)nc3ccccc23)c1"
unit_label = "µM"
obs_value = 0.287


###

Tested on: HCT-116
protocol.notes: cells
experimental.context: Homo sapiens, HCT-116, 72 h
Description: Antiproliferative activity against p53+/+ human HCT116 cells after 72 hrs by CellTiter 96 aqueous one solution assay
measured.endpoint: IC50

[[record]]
smiles_data = "CCOc1ccccc1/C=C/c1nc2ccccc2c(=O)[nH]1"
subject_of_test = "HCT-116"
measured_endpoint = "IC50"
obs_value = "23.3 µM"

[[record]]
smiles_data = "COc1ccccc1/C=C/c1nc(Nc2cccc(O)c2)c2ccccc2n1"
subject_of_test = "HCT-116"
measured_endpoint = "IC50"
obs_value = "21.7 µM"

[[record]]
smiles_data = "O=c1[nH]c(/C=C/c2ccc([N+](=O)[O-])cc2)nc2ccccc12"
subject_of_test = "HCT-116"
measured_endpoint = "IC50"
obs_value = "> 25 µM"

[[record]]
smiles_data = "CC(=O)Oc1ccccc1/C=C/c1nc(Nc2ccccc2I)c2ccccc2n1"
subject_of_test = "HCT-116"
measured_endpoint = "IC50"
obs_value = "> 25 µM"

[[record]]
smiles_data = "COc1ccccc1/C=C/c1nc(Nc2ccc(O)cc2)c2ccccc2n1"
subject_of_test = "HCT-116"
measured_endpoint = "IC50"
obs_value = "> 25 µM"

[[record]]
smiles_data = "COc1cccc(/C=C/c2nc3ccccc3c(=O)[nH]2)c1"
subject_of_test = "HCT-116"
measured_endpoint = "IC50"
obs_value = "> 25 µM"

[[record]]
smiles_data = "Oc1ccc(Nc2nc(/C=C/c3cccc(Cl)c3)nc3ccccc23)cc1"
subject_of_test = "HCT-116"
measured_endpoint = "IC50"
obs_value = "21.9 µM"

[[record]]
smiles_data = "COc1ccc(/C=C/c2nc3ccccc3c(=O)[nH]2)cc1"
subject_of_test = "HCT-116"
measured_endpoint = "IC50"
obs_value = "> 25 µM"

[[record]]
smiles_data = "COc1ccc(Cl)c(Nc2ncnc3cc(OCC4CCN(C)CC4)c(OC)cc23)c1"
subject_of_test = "HCT-116"
measured_endpoint = "IC50"
obs_value = "> 25 µM"

[[record]]
smiles_data = "COc1ccc(/C=C/c2nc(Nc3cccc(O)c3)c3ccccc3n2)cc1"
subject_of_test = "HCT-116"
measured_endpoint = "IC50"
obs_value = "22.9 µM"

[[record]]
smiles_data = "O=c1[nH]c(/C=C/c2c(Br)ccc3c2OCO3)nc2ccccc12"
subject_of_test = "HCT-116"
measured_endpoint = "IC50"
obs_value = "> 25 µM"

[[record]]
smiles_data = "COc1ccc(OC)c(Nc2nc(/C=C/c3ccccc3OC(C)=O)nc3ccccc23)c1"
subject_of_test = "HCT-116"
measured_endpoint = "IC50"
obs_value = "> 25 µM"

[[record]]
smiles_data = "O=c1[nH]c(/C=C/c2cccc3c2OCO3)nc2ccccc12"
subject_of_test = "HCT-116"
measured_endpoint = "IC50"
obs_value = "> 25 µM"

[[record]]
smiles_data = "O=c1[nH]c(/C=C/c2cc3c(cc2Br)OCO3)nc2ccccc12"
subject_of_test = "HCT-116"
measured_endpoint = "IC50"
obs_value = "> 25 µM"

[[record]]
smiles_data = "COc1ccccc1/C=C/c1nc(NCc2ccc3c(c2)OCO3)c2ccccc2n1"
subject_of_test = "HCT-116"
measured_endpoint = "IC50"
obs_value = "10.8 µM"

[[record]]
smiles_data = "CCOc1ccc(/C=C/c2nc3ccccc3c(=O)[nH]2)cc1"
subject_of_test = "HCT-116"
measured_endpoint = "IC50"
obs_value = "> 25 µM"

[[record]]
smiles_data = "Oc1cccc(Nc2nc(/C=C/c3cc4c(cc3Br)OCO4)nc3ccccc23)c1"
subject_of_test = "HCT-116"
measured_endpoint = "IC50"
obs_value = "4.38 µM"

[[record]]
smiles_data = "O=c1[nH]c(/C=C/c2cccc([N+](=O)[O-])c2)nc2ccccc12"
subject_of_test = "HCT-116"
measured_endpoint = "IC50"
obs_value = "> 25 µM"

[[record]]
smiles_data = "O=[N+]([O-])c1cccc(/C=C/c2nc(Nc3cccc(O)c3)c3ccccc3n2)c1"
subject_of_test = "HCT-116"
measured_endpoint = "IC50"
obs_value = "10.9 µM"

[[record]]
smiles_data = "CC(=O)Oc1ccc(/C=C/c2nc3ccccc3c(=O)[nH]2)c(OC(C)=O)c1"
subject_of_test = "HCT-116"
measured_endpoint = "IC50"
obs_value = "> 25 µM"

[[record]]
smiles_data = "Oc1cccc(Nc2nc(/C=C/c3cccc(Cl)c3)nc3ccccc23)c1"
subject_of_test = "HCT-116"
measured_endpoint = "IC50"
obs_value = "> 25 µM"

[[record]]
smiles_data = "O=c1[nH]c(/C=C/c2ccc3c(c2)OCO3)nc2ccccc12"
subject_of_test = "HCT-116"
measured_endpoint = "IC50"
obs_value = "> 25 µM"

[[record]]
smiles_data = "Cc1nc(Nc2ncc(C(=O)Nc3c(C)cccc3Cl)s2)cc(N2CCN(CCO)CC2)n1"
subject_of_test = "HCT-116"
measured_endpoint = "IC50"
obs_value = "3.58 µM"


###

# Lookup of reported inhibition keyed by entry
subject.of.test: Tyrosine-protein kinase Fyn (Homo sapiens)
Sequence (P06241 2-537 limits assumed): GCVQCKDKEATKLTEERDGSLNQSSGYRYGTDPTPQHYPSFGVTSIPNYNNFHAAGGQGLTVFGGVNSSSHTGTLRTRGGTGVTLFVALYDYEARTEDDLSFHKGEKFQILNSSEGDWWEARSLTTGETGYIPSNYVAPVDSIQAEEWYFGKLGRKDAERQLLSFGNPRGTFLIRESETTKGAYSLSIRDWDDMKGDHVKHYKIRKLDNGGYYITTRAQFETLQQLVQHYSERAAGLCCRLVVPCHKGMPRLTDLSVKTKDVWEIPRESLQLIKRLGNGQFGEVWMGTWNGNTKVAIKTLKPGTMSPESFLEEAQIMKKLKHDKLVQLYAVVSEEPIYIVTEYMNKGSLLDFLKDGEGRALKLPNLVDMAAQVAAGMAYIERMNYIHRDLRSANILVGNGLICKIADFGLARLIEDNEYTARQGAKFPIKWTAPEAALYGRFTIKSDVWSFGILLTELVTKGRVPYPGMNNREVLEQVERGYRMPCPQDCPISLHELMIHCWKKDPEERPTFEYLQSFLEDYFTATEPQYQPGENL
protocol.notes: Inhibition of Fyn A (unknown origin) at 0.5 uM preincubated for 10 mins followed by substrate addition and measured after 1 hr by ADP-Glo luminescence assay relative to control
measured.endpoint: inhibition (%)

[[record]]
smiles_data = "COc1ccccc1/C=C/c1nc(Nc2ccc(O)cc2)c2ccccc2n1"
unit_label = "%"
obs_value = 0

[[record]]
smiles_data = "CNC(=O)c1ccccc1Sc1ccc2c(/C=C/c3ccccn3)n[nH]c2c1"
unit_label = "%"
obs_value = 44

[[record]]
smiles_data = "CC(=O)Oc1ccccc1/C=C/c1nc2ccccc2c(=O)[nH]1"
unit_label = "%"
obs_value = 0

[[record]]
smiles_data = "Oc1ccc(Nc2nc(/C=C/c3cccc(Cl)c3)nc3ccccc23)cc1"
unit_label = "%"
obs_value = 0

[[record]]
smiles_data = "Cc1nc(Nc2ncc(C(=O)Nc3c(C)cccc3Cl)s2)cc(N2CCN(CCO)CC2)n1"
unit_label = "%"
obs_value = 92

[[record]]
smiles_data = "O=c1[nH]c(/C=C/c2ccc([N+](=O)[O-])cc2)nc2ccccc12"
unit_label = "%"
obs_value = 29

[[record]]
smiles_data = "CCOc1ccccc1/C=C/c1nc2ccccc2c(=O)[nH]1"
unit_label = "%"
obs_value = 0

[[record]]
smiles_data = "Oc1cccc(Nc2nc(/C=C/c3cc4c(cc3Br)OCO4)nc3ccccc23)c1"
unit_label = "%"
obs_value = 0

[[record]]
smiles_data = "COc1ccc(Cl)c(Nc2ncnc3cc(OCC4CCN(C)CC4)c(OC)cc23)c1"
unit_label = "%"
obs_value = 76

[[record]]
smiles_data = "COc1cccc(/C=C/c2nc3ccccc3c(=O)[nH]2)c1"
unit_label = "%"
obs_value = 0

[[record]]
smiles_data = "CCCCOc1ccc(/C=C/c2nc3ccccc3c(=O)[nH]2)cc1"
unit_label = "%"
obs_value = 0

[[record]]
smiles_data = "COc1ccc(/C=C/c2nc(NCCCN(C)C)c3ccccc3n2)cc1"
unit_label = "%"
obs_value = 31

[[record]]
smiles_data = "COc1ccccc1/C=C/c1nc2ccccc2c(=O)[nH]1"
unit_label = "%"
obs_value = 0

[[record]]
smiles_data = "O=c1[nH]c(/C=C/c2c(Br)ccc3c2OCO3)nc2ccccc12"
unit_label = "%"
obs_value = 61

[[record]]
smiles_data = "COc1ccccc1/C=C/c1nc(NCc2ccc3c(c2)OCO3)c2ccccc2n1"
unit_label = "%"
obs_value = 1

[[record]]
smiles_data = "CCOc1ccc(/C=C/c2nc3ccccc3c(=O)[nH]2)cc1"
unit_label = "%"
obs_value = 0

[[record]]
smiles_data = "CC(=O)Oc1cccc(/C=C/c2nc3ccccc3c(=O)[nH]2)c1"
unit_label = "%"
obs_value = 0

[[record]]
smiles_data = "COc1ccc(/C=C/c2nc(Nc3cccc(O)c3)c3ccccc3n2)cc1"
unit_label = "%"
obs_value = 0

[[record]]
smiles_data = "O=c1[nH]c(/C=C/c2cc3c(cc2Br)OCO3)nc2ccccc12"
unit_label = "%"
obs_value = 0

[[record]]
smiles_data = "O=c1[nH]c(/C=C/c2cccc3c2OCO3)nc2ccccc12"
unit_label = "%"
obs_value = 40

[[record]]
smiles_data = "O=c1[nH]c(/C=C/c2ccc3c(c2)OCO3)nc2ccccc12"
unit_label = "%"
obs_value = 4

[[record]]
smiles_data = "Cc1ccc(NC(=O)c2ccc(CN3CCN(C)CC3)cc2)cc1Nc1nccc(-c2cccnc2)n1"
unit_label = "%"
obs_value = 0

[[record]]
smiles_data = "O=c1[nH]c(/C=C/c2cccc([N+](=O)[O-])c2)nc2ccccc12"
unit_label = "%"
obs_value = 0

[[record]]
smiles_data = "Oc1cccc(Nc2nc(/C=C/c3cccc(Cl)c3)nc3ccccc23)c1"
unit_label = "%"
obs_value = 0

[[record]]
smiles_data = "CC(=O)Oc1ccccc1/C=C/c1nc(Nc2ccccc2I)c2ccccc2n1"
unit_label = "%"
obs_value = 24

[[record]]
smiles_data = "COc1ccc(OC)c(Nc2nc(/C=C/c3ccccc3OC(C)=O)nc3ccccc23)c1"
unit_label = "%"
obs_value = 63

[[record]]
smiles_data = "O=[N+]([O-])c1cccc(/C=C/c2nc(Nc3cccc(O)c3)c3ccccc3n2)c1"
unit_label = "%"
obs_value = 0

[[record]]
smiles_data = "COc1ccc(/C=C/c2nc3ccccc3c(=O)[nH]2)cc1"
unit_label = "%"
obs_value = 2

[[record]]
smiles_data = "COc1ccccc1/C=C/c1nc(Nc2ccc3c(c2)OCO3)c2ccccc2n1"
unit_label = "%"
obs_value = 90

[[record]]
smiles_data = "COc1ccccc1/C=C/c1nc(Nc2cccc(O)c2)c2ccccc2n1"
unit_label = "%"
obs_value = 0

[[record]]
smiles_data = "CC(=O)Oc1ccc(/C=C/c2nc3ccccc3c(=O)[nH]2)c(OC(C)=O)c1"
unit_label = "%"
obs_value = 19

[[record]]
smiles_data = "COc1ccccc1/C=C/c1nc(Nc2ccccc2Cl)c2ccccc2n1"
unit_label = "%"
obs_value = 0

